System: H358
Assay: MTT cell viability assay
Conditions: Homo sapiens, NCI-H358, 72 h
propertyLabel: IC50 (µM)
State the answer as a number, implicitly in µM.

Give IC50 for `CC(C)(C)c1cc(NC(=O)Nc2ccc(Oc3ncnc4[nH]ncc34)c(F)c2)no1` tested on H358. 8

---

Target: PDGFRα (Homo sapiens, UniProt P16234)
Sequence (P16234 24-1089): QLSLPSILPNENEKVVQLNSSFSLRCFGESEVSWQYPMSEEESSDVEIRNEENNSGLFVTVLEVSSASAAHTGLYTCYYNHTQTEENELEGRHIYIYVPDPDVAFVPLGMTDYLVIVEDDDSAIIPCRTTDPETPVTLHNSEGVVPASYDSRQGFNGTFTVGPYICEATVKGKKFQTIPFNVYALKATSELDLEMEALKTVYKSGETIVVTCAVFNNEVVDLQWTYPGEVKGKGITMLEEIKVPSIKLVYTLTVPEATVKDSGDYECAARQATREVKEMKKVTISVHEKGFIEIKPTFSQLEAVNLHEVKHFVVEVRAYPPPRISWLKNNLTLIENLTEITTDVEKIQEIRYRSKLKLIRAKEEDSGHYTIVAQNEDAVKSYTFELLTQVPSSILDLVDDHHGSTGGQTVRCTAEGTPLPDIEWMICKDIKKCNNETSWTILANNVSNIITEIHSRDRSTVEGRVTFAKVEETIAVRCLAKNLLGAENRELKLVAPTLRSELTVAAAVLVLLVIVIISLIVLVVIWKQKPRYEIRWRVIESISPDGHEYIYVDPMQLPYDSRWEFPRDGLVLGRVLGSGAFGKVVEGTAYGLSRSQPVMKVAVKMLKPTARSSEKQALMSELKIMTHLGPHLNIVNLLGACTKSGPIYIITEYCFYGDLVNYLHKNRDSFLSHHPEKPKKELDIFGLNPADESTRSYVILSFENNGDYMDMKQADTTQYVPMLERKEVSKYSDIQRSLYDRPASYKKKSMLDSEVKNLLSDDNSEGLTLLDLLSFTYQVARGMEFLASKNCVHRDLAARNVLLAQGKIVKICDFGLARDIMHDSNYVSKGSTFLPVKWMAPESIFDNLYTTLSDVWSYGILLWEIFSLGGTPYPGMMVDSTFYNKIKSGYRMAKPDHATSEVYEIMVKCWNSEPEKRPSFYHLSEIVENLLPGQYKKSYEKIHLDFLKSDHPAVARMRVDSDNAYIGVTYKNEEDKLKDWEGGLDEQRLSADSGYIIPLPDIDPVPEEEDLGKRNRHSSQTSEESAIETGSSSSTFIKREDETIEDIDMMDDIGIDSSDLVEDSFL
propertyLabel: Kd
# do not omit the unit; it follows the number

Give Kd for CC(C)(C)c1cc(NC(=O)Nc2ccc(Oc3ncnc4[nH]ncc34)c(F)c2)no1 [SKLB-677] tested on PDGFRα (Homo sapiens, UniProt P16234). 12 nM

---

Tested on: A2058
Test: MTT cell viability assay
Settings: Homo sapiens, A2058, 72 h
propertyLabel: IC50

# return recorded IC50 for entry `CC(C)(C)c1cc(NC(=O)Nc2ccc(Oc3ncnc4[nH]ncc34)c(F)c2)no1` > 10 µM
